# System Name: UniProt P21836
# Sequence (P21836 whole entry): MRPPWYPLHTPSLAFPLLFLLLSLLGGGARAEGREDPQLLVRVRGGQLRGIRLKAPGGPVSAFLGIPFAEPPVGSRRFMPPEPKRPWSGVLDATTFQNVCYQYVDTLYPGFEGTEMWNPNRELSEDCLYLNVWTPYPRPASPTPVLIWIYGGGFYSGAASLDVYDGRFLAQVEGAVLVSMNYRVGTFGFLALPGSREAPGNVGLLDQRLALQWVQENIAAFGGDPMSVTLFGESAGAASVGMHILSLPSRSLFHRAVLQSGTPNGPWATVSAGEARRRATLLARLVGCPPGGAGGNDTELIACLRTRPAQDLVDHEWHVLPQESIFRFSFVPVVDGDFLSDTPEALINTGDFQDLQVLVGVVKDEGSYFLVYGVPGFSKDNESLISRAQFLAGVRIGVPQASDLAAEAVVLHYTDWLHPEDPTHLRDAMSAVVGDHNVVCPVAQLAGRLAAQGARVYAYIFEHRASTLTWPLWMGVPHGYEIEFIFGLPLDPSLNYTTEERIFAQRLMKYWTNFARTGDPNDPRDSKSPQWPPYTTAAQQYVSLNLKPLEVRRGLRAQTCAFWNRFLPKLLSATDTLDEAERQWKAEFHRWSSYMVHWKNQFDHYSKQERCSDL
pIC50: −log10 of the molar value.
Reported Endpoint: pIC50

Take a look at these entries with their results.
1) CC(C)c1ccc(NC(=O)Oc2ccc3c(c2)[C@]2(C)CCN(Cc4ccccc4)[C@@H]2N3C)cc1; < 4.00
2) CC(C)c1ccc(NC(=O)Oc2ccc3c(c2)[C@]2(C)CCN(C(Cc4ccccc4)c4ccccc4)[C@@H]2N3C)cc1 (stereo not given in full); < 4.00
3) CC(C)c1ccc(NC(=O)Oc2ccc3c(c2)[C@]2(C)CCN(C)[C@@H]2N3C)cc1 [4-ISOPROPYLPHENSERINE]; 5.08

Each molecule below has a recorded value; state its pIC50.
1. CC(C)c1ccc(NC(=O)Oc2ccc3c(c2)[C@]2(C)CCN(CC(C)c4ccccc4)[C@@H]2N3C)cc1 (stereo not given in full)
2. CC(C)c1ccc(NC(=O)Oc2ccc3c(c2)[C@]2(C)CCN(CCc4ccccn4)[C@@H]2N3C)cc1
3. CC(C)c1ccc(NC(=O)Oc2ccc3c(c2)[C@]2(C)CCN(CCc4ccccc4)[C@@H]2N3C)cc1 [PHENETHYLCYMSERINE]
4. CC(C)c1ccc(NC(=O)Oc2ccc3c(c2)[C@]2(C)CCN(CCCc4ccccc4)[C@@H]2N3C)cc1

Result:
< 4.00
5.38
< 4.00
< 4.00

Each molecule below has a recorded value; state its pIC50.
1. CC(C)c1ccc(NC(=O)Oc2ccc3c(c2)[C@]2(C)CCN(CCN4CCCCC4)[C@@H]2N3C)cc1
2. CC(C)c1ccc(NC(=O)Oc2ccc3c(c2)[C@]2(C)CCN(CCc4ccc(Cl)cc4Cl)[C@@H]2N3C)cc1
3. CC(C)c1ccc(NC(=O)Oc2ccc3c(c2)[C@]2(C)CCN(CCc4ccc(F)cc4)[C@@H]2N3C)cc1

Result:
[5.46, "< 4.00", "< 4.00"]
